Values compiled from ChEMBL document CHEMBL1201862.

Test system: Malme-3M
Assay: NCI tumour cell line growth inhibition, 48 h
Active and inactive are the calls of the source. Rule as the data show it: active = GI50 up to about 1.1 µM and inactive = higher.
measure.name: GI50

Below, 8 molecules whose answers are already recorded.
| molecule | result |
| --- | --- |
| CC1=C2[C@@H](c3ccccc3)C3C=CC2(C=C3C(F)(F)F)N(C(=O)NC2CCCCC2)C1=O (stereo partly drawn) | > 100 µM (inactive) |
| COc1ccc2nc3cc([N+](=O)[O-])ccc3c(NNc3ccccc3)c2c1 | 20.3 µM (inactive) |
| BrCC[N+]12CCCN1CCC2 | 2.32 µM (inactive) |
| CC(C)=CCc1ccc2[nH]c3c(c2c1)C(=O)C(=O)C(C)=C3C(O)C(C)O (stereo not drawn) | 1.78 µM (inactive) |
| C[N+](C)(C)CC(=O)N/N=C\c1c(O)ccc2ccccc12 | 11.9 µM (inactive) |
| CN1CCc2c(sc3nc(S)nc(S)c23)C1 | > 100 µM (inactive) |
| NC(=O)C1N=NSC1NC(=O)c1ccc([N+](=O)[O-])cc1 (stereo not drawn) | 60.3 µM (inactive) |
| Cn1cc(C(=O)c2ccccc2)ccc1=O | > 100 µM (inactive) |

Form field GI50, entry OCC1NC(COC2OC(CO)C(O)C(O)C2O)C(O)C(O)C1O (stereo not drawn) : > 100 µM (inactive)

Form field GI50, entry `COc1ccc(OCc2ccc3nc(-c4ccccc4)c(Cl)nc3c2)cc1` : 12.9 µM (inactive)

Form field GI50, entry `CCOC(=O)/C=C(/C(=O)OCC)n1ccc(=O)[nH]c1=O` : 1.9 µM (inactive)

Form field GI50, entry COc1ccc(C(CC(=O)c2ccc3c(c2)OCO3)c2c(O)oc3ccccc3c2=O)cc1OC (stereo not drawn) : > 100 µM (inactive)

Form field GI50, entry CC(C)(C)C1(O)Cc2ccccc2C(=O)O1 (stereo not drawn) : > 100 µM (inactive)

Form field GI50, entry `CCCCOC(=O)NC(Nc1ccc(S(N)(=O)=O)cc1)(C(F)(F)F)C(F)(F)F` : > 100 µM (inactive)

Form field GI50, entry `Cc1[nH]n(C(=N)N)c(=O)c1CCO` : > 100 µM (inactive)

Form field GI50, entry CC(O)C1(CNc2cc(Cl)nc(N)n2)CCCC1 (stereo not drawn) : > 100 µM (inactive)

Form field GI50, entry `Nc1c(-c2nc3ccccc3s2)[n+]([O-])c2ccccc2[n+]1[O-]` : 30.4 µM (inactive)

Form field GI50, entry `CCc1nc2cc(F)ccc2[nH]c1=O` : > 100 µM (inactive)

---

System: K562
Experiment: NCI tumour cell line growth inhibition, 48 h
Calls of active or inactive are those of the source. Rule as the data show it: active = GI50 up to about 1.1 µM and inactive = higher.
measure.name: GI50

Below, 5 compounds whose answers are already recorded.
| compound | GI50 |
| --- | --- |
| CCN(CC)c1ccc(C2Nc3ccc4ccccc4c3C3=C2C(=O)CCC3)cc1 (stereo not given) | > 100 µM (inactive) |
| CCOC(=O)c1ccc(-c2cccs2)[nH]1 | 71.3 µM (inactive) |
| O=C(O)CCC1CCc2cccc(OCC(=O)O)c2C1=O (stereo not given) | > 100 µM (inactive) |
| c1ccc2c3c(ccc2c1)CSCc1ccc2ccccc2c1-3 | > 100 µM (inactive) |
| CCCCC/C=C1\CCC(CN(C)C)C1=O (stereo not given) | 1.94 µM (inactive) |

Form field GI50, entry `CCc1nc2cc(F)ccc2[nH]c1=O` : > 100 µM (inactive)

Form field GI50, entry O=C1c2ccccc2CC12Cc1cc3c(cc1C2=O)CCC3 (stereo not given) : > 100 µM (inactive)

Form field GI50, entry `Brc1cccc[n+]1-c1ccc2cc(-[n+]3ccccc3Br)ccc2c1` : 59.2 µM (inactive)

Form field GI50, entry `COc1ccc(CNc2nc3ccccc3nc2-c2cccs2)cc1` : 23.6 µM (inactive)

Form field GI50, entry `COc1cc(/C=N/c2nc3cc4sc(/N=C/c5cc(OC)c(OC)c(OC)c5)nc4cc3s2)cc(OC)c1OC` : 50.1 µM (inactive)

Form field GI50, entry `O=C1c2ccc(O)cc2C(=O)c2ccc(O)cc21` : 50.1 µM (inactive)

Form field GI50, entry `Cc1[nH]nc(-c2ccon2)c1N=O` : 18.5 µM (inactive)

Form field GI50, entry `O=C(NCCCN1CCN(CCCNC(=O)c2cccc3ccccc23)CC1)c1cccc2ccccc12` : 41.4 µM (inactive)

Form field GI50, entry O=C(O)CCC1CCc2cccc3occ1c23 (stereo not given) : > 100 µM (inactive)

Form field GI50, entry `CCNC1=C(NC(=O)c2ccc(OC)cc2)C(=O)c2ccccc2C1=O` : > 100 µM (inactive)
